# assay_overview: Rat serum stability studies (remaining active peptide by DiscoveRx cAMP on CHO-VPAC2 cells)
# Assay type: in vitro ADME
Where no end group is shown, it is not given here. The star is where a group is joined. Hexanoyl = CCCCCC(=O)*
# Rat Serum Stability (estimated purity in % after 18 hours) annotations
Answer in %, number only, no unit symbol.

As a guide, the following entries are already answered.
substance: Hexanoyl-HSDAVFTDNYTRLRQQVAAKKYLQSIKNKRYGGPSSGAPPPS [Agonist P177]
endpoint_result: 0.49
--
substance: Hexanoyl-HSDIVFTDNYTRLRKQVAAKKYLQSIKNKRYGGPSSGAPPPS [Agonist P221]
endpoint_result: 0.87
--
substance: Hexanoyl-HSDAVFTEEYTRLQKQVAAKQYLQSIKNKRYGGPSSGAPPPS [Agonist P165]
endpoint_result: 7.28

Proceed to the following item.
Request: Give the measured Rat Serum Stability (estimated purity in % after 18 hours) of Hexanoyl-HSDAVFTDNYTRLRKQVAAVKYLQSIKNKRYGGPSSGAPPPS [Agonist P146] .
Response: 0.53
